B1: TPR 5TU (parent)
chain: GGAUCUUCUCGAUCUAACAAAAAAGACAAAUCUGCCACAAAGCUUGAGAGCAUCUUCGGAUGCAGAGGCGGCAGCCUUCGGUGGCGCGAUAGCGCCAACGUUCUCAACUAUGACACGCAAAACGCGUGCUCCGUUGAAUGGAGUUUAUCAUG

# Variants of: B1
# test summary: polymerase ribozyme fitness, log enrichment relative to wild type (log ratio); higher = more active; in vitro selection for triplet polymerase activity
Fewer inactive variants are shown than the library holds.
parameter measured: polymerase ribozyme fitness (log ratio)

var | relation symbol | measured
C87A U144G | = | -3.92
U55A A60C | = | -4.18
A39C U55A C118U | = | -2.2
C57A G70U C96U | = | -2.27
C8U C43G A47U A64G G70A C79G C99G U135C G136C U145A | ≤ | -4.2
C43A U53A U55A G74A C76A G88U A142G | ≤ | -4.2
A37C A115U | = | -1.16
A97U U151G | ≤ | -4.2
C14G A22G C54U G70U C95U C96A C114U A137C | ≤ | -4.2
C27U G92U | = | -1.78
A21C C85A U127A | ≤ | -4.2
U9G C96U | = | -3.76
A30U A37U U53A C87U | ≤ | -4.2
A30U G84A C96U U144A | ≤ | -4.2
C18G A26C C54A G62A C76G C87A A97C A150U | ≤ | -4.2
U77G G141A | = | -4.18
G11A A23U A39U U53G C54U C93U A122U A142G | ≤ | -4.2
C36A G42A U45G G81A C87A A137C | ≤ | -4.2
A16U C38U A60C G80U A97G | ≤ | -4.2
A20G U102G A107U C116U A142U | ≤ | -4.2
C35G G50A G58A A66C C75A C87U | ≤ | -4.2
A47G U53A C57A G84U C99U U134G G141C | ≤ | -4.2
C114U G136C | = | -3.39
A17C C27A A52G A60U C69U C85A C95G C125A | ≤ | -4.2
A26C G83C | = | -2.82
G58C U139C | = | -3.3
C85A U109G C118U | = | -1.54
A23U C27G A40G A47U G67A G83U G84A | ≤ | -4.2
A39G C54A A91G G94A | ≤ | -4.2
A47C U61A G140U U145G | ≤ | -4.2
G42C G88U C95A | ≤ | -4.2
C114U G140C A150C | ≤ | -4.2
A113G A138U | = | -3.79
A12U G141C | = | -0.54
G50A U82C | = | -0.783
C36A C87G A107C | ≤ | -4.2
A19C A29U A39U A60U C76U C95U U144A | ≤ | -4.2
A39G G70A U77G G141A A142C | ≤ | -4.2
U7A C54A C72A | ≤ | -4.2
C87U G88U | ≤ | -4.2
G50A C76U C96A A121G | = | -1.1
U78C U146C | = | 0.315
A21C C35U U44A U53A U101G | ≤ | -4.2
A52G A73G C85U | = | -0.163
U55A C63A G83C G84U C125G U135A | ≤ | -4.2
A110G G136A | = | -2.94
A3U G46A A113U | = | -3.1
C10U C18U U44G A60G G92A | ≤ | -4.2
C10G A41U | = | -4.05
C85A A120U | = | -1.7
A47C C57A C93U | = | -1.3
A107U A115G | = | -4.16
G25U C85A | = | -3.88
G42A G88A C93G U145G C149A | ≤ | -4.2
A64G G83U C118A A138G | ≤ | -4.2
A60C G67C A73G G81A C114A G136C | ≤ | -4.2
A19C A21G C57A G58U C72U C85U C103U U134C | = | -0.327
C18U C93G | = | -3.19
C85U A115U | = | -2.38
A41U C54U C63U U82A C95G A115U | ≤ | -4.2
C54U A73G | = | -0.166
A26U G46C U55A C93U C103A A106G C114A | ≤ | -4.2
C76A G83U A106G | = | -3.45
G50A C93G G124A C125U G133A U135G A150G | ≤ | -4.2
G59C C95U A110G C116A | = | -3.2
U55A C69A A97U U102C C149A | ≤ | -4.2
A60C U82G G86A U146G | = | -3.33
A20G A29C G46U C54U C96U C116A U148A | ≤ | -4.2
A28G G58U | ≤ | -4.2
C85U U139C | = | -3.16
C35A C76A C93A U148C | ≤ | -4.2
U61G G83U G86A C149U | ≤ | -4.2
A16G A21C G48C C54A G58U C93U A122G | = | -3.83
A49C A52C A66G G86C A119G | ≤ | -4.2
A12C U15C A40U C99G | = | -0.411
C85U A97U A115U | = | -2.7
A16C C36A G46C G68C C93U G112U A115C A122U G143U | ≤ | -4.2
A66U C75G U82G A106C C116U | ≤ | -4.2
C76U C85U | = | -2.03
C72G A89G G92A C114G | ≤ | -4.2
A21U C79U C93G | ≤ | -4.2
U77C G84U A106C | ≤ | -4.2
A98U A115U A121G U127G | = | -3.32
A19G C35A G42C G68C G92A | ≤ | -4.2
A17U C93A G94U A121U A150G | ≤ | -4.2
A29C C35A | = | -3.91
A21G G50C C93U C118U A138U U145A | ≤ | -4.2
G25U C27U C93U G143U | ≤ | -4.2
G70A G83U C105A A147C U148A | ≤ | -4.2
A22G G59A A60C C85A G94A C105U G126A | = | -4.1
G58C G59C C96U C131A | = | -4.15
